Quick reference: MIC90 of the listed items.
Tested on: Staphylococcus aureus
experiment summary: Antibacterial activity against methicillin-resistant Staphylococcus aureus isolate 7864 after 18 hrs by broth microdilution method
Assay type: functional
measurement conditions: isolate 7864, 18 h
Just the number please, in mg/L, no unit attached.

Recorded MIC90, per entry:
CN[C@H](CC(C)C)C(=O)N[C@H]1C(=O)N[C@@H](CC(N)=O)C(=O)N[C@H]2C(=O)N[C@H]3C(=O)N[C@H](C(=O)N[C@H](C(=O)O)c4cc(O)cc(O)c4-c4cc3ccc4O)[C@H](O)c3ccc(c(Cl)c3)Oc3cc2cc(c3O[C@@H]2O[C@H](CO)[C@@H](O)[C@H](O)[C@H]2O[C@H]2C[C@](C)(N)[C@H](O)[C@H](C)O2)Oc2ccc(cc2Cl)[C@H]1O :: 1
CC(C)c1ccc(CN2CCCN(CCc3cc(-c4cccs4)nc(-c4ccncc4)n3)CC2)cc1 :: 2
CC(C)(C)c1ccc(CN2CCCN(CCc3cc(-c4cccs4)nc(-c4ccncc4)n3)CC2)cc1 :: 2

Exercise: Consider the compound FC(F)(F)c1ccc(CN2CCCN(CCc3cc(-c4cccs4)nc(-c4ccncc4)n3)CC2)cc1 and give its recorded MIC90.
Key: 4
